Data origin, for the record: patent US20210395713A1

target: T1, purified recombinant MHC II protein, allele DRB1*0401 (human); test: MHC II competition binding assay
T1 construct: bought from Benaroya Research Institute; also called DR4; MHC-II DR molecule
property: pIC50
The quantity pIC50 is defined as the negative base-10 logarithm of the molar concentration.

Query block: What measured pIC50 goes with GVHRQWYMHLSKYNVKVGD [cluster 3 wild-type (C3WT) epitope peptide] ?
Result block: 4.42
